- subject.of.test: poly(ADP-ribose)polymerase (Homo sapiens, UniProt P09874)
- Sequence (P09874 whole entry): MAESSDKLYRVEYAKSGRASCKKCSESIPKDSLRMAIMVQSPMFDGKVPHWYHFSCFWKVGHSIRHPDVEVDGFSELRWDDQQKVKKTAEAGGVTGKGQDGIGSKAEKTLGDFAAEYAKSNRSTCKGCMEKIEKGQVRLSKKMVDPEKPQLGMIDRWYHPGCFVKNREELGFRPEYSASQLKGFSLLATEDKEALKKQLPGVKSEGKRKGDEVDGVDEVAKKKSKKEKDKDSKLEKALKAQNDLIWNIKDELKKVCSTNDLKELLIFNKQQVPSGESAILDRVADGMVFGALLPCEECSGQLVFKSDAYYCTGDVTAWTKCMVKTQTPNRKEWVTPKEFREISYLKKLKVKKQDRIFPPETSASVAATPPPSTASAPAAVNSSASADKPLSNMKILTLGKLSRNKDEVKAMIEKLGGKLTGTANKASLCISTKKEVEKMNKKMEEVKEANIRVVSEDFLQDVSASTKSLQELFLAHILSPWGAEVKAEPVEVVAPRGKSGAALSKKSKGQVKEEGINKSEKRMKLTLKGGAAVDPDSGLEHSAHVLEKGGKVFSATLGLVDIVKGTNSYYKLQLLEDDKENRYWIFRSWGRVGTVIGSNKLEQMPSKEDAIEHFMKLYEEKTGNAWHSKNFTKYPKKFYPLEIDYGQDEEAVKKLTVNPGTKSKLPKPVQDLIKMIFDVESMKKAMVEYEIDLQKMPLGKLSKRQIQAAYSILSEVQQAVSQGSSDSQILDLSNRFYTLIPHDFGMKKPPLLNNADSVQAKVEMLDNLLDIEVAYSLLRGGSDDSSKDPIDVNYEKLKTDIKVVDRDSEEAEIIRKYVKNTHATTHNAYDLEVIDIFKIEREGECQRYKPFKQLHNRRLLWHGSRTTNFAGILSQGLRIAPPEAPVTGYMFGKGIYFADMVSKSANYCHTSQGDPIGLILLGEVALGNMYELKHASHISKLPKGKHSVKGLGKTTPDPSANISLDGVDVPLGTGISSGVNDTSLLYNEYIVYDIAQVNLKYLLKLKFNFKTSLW
measured.endpoint: Ki
Please don't drop the unit; write it after the number.

The examples below pair each entry with its known result.
INSERT INTO results (compound, subject_of_test, reading) VALUES
  ('CC(=O)Nc1cccc(C(N)=O)c1 [3-acetylaminobenzamide, reference compound]', 'poly(ADP-ribose)polymerase (Homo sapiens, UniProt P09874)', '3200 nM'),
  ('NC(=O)c1cccc(NC=O)c1 [Compound 1, 3-formylaminobenzamide]', 'poly(ADP-ribose)polymerase (Homo sapiens, UniProt P09874)', '1610 nM'),
  ('O=CNc1cccc2c(=O)[nH][nH]c(=O)c12', 'poly(ADP-ribose)polymerase (Homo sapiens, UniProt P09874)', '518 nM');

Kindly consider the entry below.
### Prompt Notebook: pull reported Ki for poly(ADP-ribose)polymerase (Homo sapiens, UniProt P09874), entry CCC(=O)Nc1cccc(C(N)=O)c1 [3-propionylaminobenzamide, reference compound]
### Response 2490 nM
